system: HOP-62; test: NCI tumour cell line growth inhibition, 48 h
The source made the active and inactive calls. Rule as the data show it: active = GI50 up to about 1.1 µM and inactive = higher.
quantity_kind: GI50

Previously resolved entries follow.
[
  {
    "molecule": "O=C1/C(=C\\c2cccc(Oc3ccccc3)c2)S(=O)(=O)C(c2ccccc2)N1c1ccccc1Cl (stereo unspecified)",
    "GI50": "26.4 µM (inactive)"
  },
  {
    "molecule": "Nc1cccc(/C=C/C(=O)N2CCN(CCOC(c3ccccc3)c3ccccc3)CC2)c1",
    "GI50": "17.7 µM (inactive)"
  },
  {
    "molecule": "CC1(C)CN(c2ccccc2)C(=O)C1OC(=O)[C@@]1(C)C[C@@H]2C=C[C@H]1C2 (stereo partly specified)",
    "GI50": "22.4 µM (inactive)"
  },
  {
    "molecule": "Cc1cn(C2OC(CO[Si](C)(C)C(C)(C)C)/C(=C\\C#N)C2O[Si](C)(C)C(C)(C)C)c(=O)[nH]c1=O (stereo unspecified)",
    "GI50": "63.7 µM (inactive)"
  }
]

So for Cn1cc(NC(=O)c2cc(NC(=O)CNC(=N)N)cn2C)cc1C(=O)NCCC(=N)N [NETROPSIN CHLORIDE] , the logged GI50 turned out to be > 100 µM (inactive)

get_value(item= `CCN(CC)CCOc1ccc(C(=C2CCCCC2)c2ccc(OCCN(CC)CC)cc2)cc1` , readout=GI50) returns 1.77 µM (inactive)

Note to self: GI50 recorded for `CC(=O)CC(=O)CCCC(=O)Nc1ccc(Cl)cc1Cl` was > 100 µM (inactive)

Form: molecule = `CC(=O)O[C@H]1C#C/C=C\C#CC[C@@H]2C(=O)N[C@@H]12` ; GI50 = 7.94 µM (inactive)

Input `CN(C)c1ccc(Cc2cc(C(C)(C)C)cc(C(C)(C)C)c2O)cc1` . Output GI50: 20.9 µM (inactive)

Lookup result for `N#CCN1CCN(CC#N)CCN(CC#N)CCN(CC#N)CC1` ; measured GI50: > 100 µM (inactive)

Reported GI50 ( CC1(c2nc3cc(Cl)c(Cl)cc3[nH]2)CCC(C(=O)O)C(C)(C)O1 (stereo unspecified) ) = > 100 µM (inactive)

Query `Nn1c(CCCCCCCCc2nnc(COc3ccccc3)n2N)nnc1COc1ccccc1` yields GI50 of > 100 µM (inactive)

The value of GI50 measured for the molecule `NCCCCCCNCc1cccc2ccccc12` turned out to be > 100 µM (inactive)

Quick note, GI50 for `O=C(O)c1cc2ccccc2c(/N=N/c2ccc(S(=O)(=O)O)cc2)c1O` landed at > 100 µM (inactive)

====

tested on: CAKI-1; test: NCI tumour cell line growth inhibition, 48 h
Structures can show the parent of a compound that is named as a salt. Activity calls are given as the source filed them. No stated cut-off is given here; in the data, active = GI50 up to about 1.1 µM and inactive = higher.
# valid calls are class 1 (active), class 0 (inactive); nothing else

[
  {
    "compound": "O=C(CCN1CCOCC1)/C(=C/c1ccccc1)c1ccccc1",
    "discrete_label": "class 0"
  },
  {
    "compound": "COC(=O)[C@]1(c2cc3ccccc3[nH]2)CC2CN(C(=O)OCc3ccccc3)C1CC2=O (stereo not given in full)",
    "discrete_label": "class 0"
  },
  {
    "compound": "O=C(Nc1ccc(Cl)cc1Cl)C(=O)C(C(=O)c1ccc2ccccc2c1)C1OC(=O)c2ccccc21 (stereo not given)",
    "discrete_label": "class 0"
  },
  {
    "compound": "CN(C)c1ccc(/C=C(\\NC(=O)c2ccccc2)c2nn(C)c(=O)o2)cc1",
    "discrete_label": "class 0"
  },
  {
    "compound": "c1ccc(CN2CCN3CCN(CC2)CCN(Cc2ccccc2)CC3)cc1",
    "discrete_label": "class 0"
  },
  {
    "compound": "CC1(C)CN(c2ccccc2)C(=O)C1OC(=O)[C@@]1(C)C[C@@H]2C=C[C@H]1C2 (stereo not given in full)",
    "discrete_label": "class 0"
  },
  {
    "compound": "O=[N+]([O-])c1ccccc1[S+]([O-])c1ccccc1 (stereo not given)",
    "discrete_label": "class 0"
  },
  {
    "compound": "CC(=O)OC1CC[C@@]2(C)C(CC[C@]3(C)C2CC=C2[C@@H]4CC(C)(C)CCC4(C)CCC23C)[C@@]1(C)C(=O)O (stereo not given in full)",
    "discrete_label": "class 0"
  }
]

Task item: Record request — test call for CC[C@]1(O)C[C@H]2CN(CCc3c([nH]c4ccccc34)[C@@](C(=O)OC)(c3cc4c(cc3OC)N(C=O)[C@H]3[C@@](O)(C(=O)OC)[C@H](OC(C)=O)[C@]5(CC)C=CCN6CC[C@]43[C@@H]65)C2)C1 [VINCRISTINE SULFATE]
Reply: class 1

Task item: What did this assay record as the result for `Nc1nc2[nH]cnc2c(=S)[nH]1` ?
Reply: class 1

Task item: Assay outcome for `CC(=O)OCc1cncn1S(=O)(=O)c1ccc(C)cc1` : what was it?
Reply: class 0

Task item: Can you look up the reported call for `Cc1cc(C)c2c(=O)n(CN3CCC(O)(c4ccccc4)CC3)sc2n1` for me?
Reply: class 0

Task item: Please state the recorded outcome for this compound: `O=[N+]([O-])c1ccc2c(c1)c1nn2CCCCOc2nn(c3ccc([N+](=O)[O-])cc23)CCCCO1`
Reply: class 0

Task item: Hey, what did the test say about `CN(C)c1ccc(Cc2cc(C(C)(C)C)cc(C(C)(C)C)c2O)cc1` ?
Reply: class 0

Task item: Please let me know the test result on file for `O=C1Cc2ccccc2CCc2ccsc21` .
Reply: class 0

Task item: Record request — test call for `O=C(CCc1ccccc1)n1cccc1CO`
Reply: class 0

Task item: Write down the call the test reported for this compound. Item: COC1CC(N)C(O)C(C)O1 (stereo not given)
Reply: class 0

Task item: What call does the record list for `Cn1cccc(C(=O)c2ccccc2)c1=O` ?
Reply: class 0

Task item: What classification did CC1(C=O)C(=O)CCC2(C)C3CC(=O)OC3CCC12 (stereo not given) end up with in this test?
Reply: class 0

Task item: Which result was noted for this compound in the test: `O=[N+]([O-])C(=C(Nc1ccccc1)Nc1ccccc1)C(Cl)=C(Cl)Cl`
Reply: class 0

====

system: DLD-1; assay: NCI tumour cell line growth inhibition, 48 h
The source made the active and inactive calls. Cut-off read from the data, not from the text of the source: active = GI50 up to about 1.1 µM and inactive = higher.
GI50 values by entry

Known results for molecules:
[
  {
    "molecule": "CN(C)c1n/c(=N/c2ncn[nH]2)ss1",
    "measured_target": "DLD-1",
    "quantity_kind": "GI50",
    "result": "> 100 µM (inactive)"
  },
  {
    "molecule": "N=C1OC(c2cccc(Cl)c2)C(NNS(=O)(=O)c2ccccc2)=C1O (centres undefined)",
    "measured_target": "DLD-1",
    "quantity_kind": "GI50",
    "result": "15 µM (inactive)"
  },
  {
    "molecule": "COc1cc(C2c3cc4c(cc3[C@@H](Nc3ccc(N)cc3)C3COC(=O)[C@H]23)OCO4)cc(OC)c1O (some centres undefined)",
    "measured_target": "DLD-1",
    "quantity_kind": "GI50",
    "result": "4.57 µM (inactive)"
  },
  {
    "molecule": "CN(/N=C/c1cccc2cccnc12)c1c([N+](=O)[O-])cc([N+](=O)[O-])cc1[N+](=O)[O-]",
    "measured_target": "DLD-1",
    "quantity_kind": "GI50",
    "result": "> 100 µM (inactive)"
  },
  {
    "molecule": "O=[N+]([O-])c1c(/C=N/c2ccccc2)oc(-c2ccc3c(c2)OCO3)c1-c1ccc2c(c1)OCO2",
    "measured_target": "DLD-1",
    "quantity_kind": "GI50",
    "result": "> 100 µM (inactive)"
  }
]

Value of GI50 reported for the molecule CC1C(=O)C(C)C(c2ccco2)N(N=O)C1c1ccco1 (centres undefined) is > 100 µM (inactive)

GI50 for `O=C(CCn1[nH]c(=O)c(Cl)c(Cl)c1=O)NOCCCc1ccccc1` is > 100 µM (inactive)

GI50 recorded for this molecule, `O=C(N/C(=C\c1ccccc1[N+](=O)[O-])c1nc2ccccc2[nH]1)c1ccccc1` , is 93.5 µM (inactive)

Record `CC1(C)CC(N(C(=O)/C=C/c2ccc([N+](=O)[O-])o2)C2CCCCC2)CC(C)(C)N1` . Reported GI50: 1.73 µM (inactive)

====

GI50 for assorted compounds
tested on: SK-OV-3; test: NCI tumour cell line growth inhibition, 48 h
Active and inactive are the calls of the source. Cut-off read from the data, not from the text of the source: active = GI50 up to about 1.1 µM and inactive = higher.

Below, 4 compounds whose answers are already recorded.
[
  {
    "compound": "Cc1cc(NS(=O)(=O)c2ccc(NC(=O)c3cccc4c(NNc5ccc(S(=O)(=O)N=C(N)N)cc5)c5ccccc5nc34)cc2)no1",
    "GI50": "54.2 µM (inactive)"
  },
  {
    "compound": "COc1cc(OC)c(/C=C\\c2cc(/C=C/c3c(OC)cc(OC)cc3OC)c3ccccc3[n+]2C)c(OC)c1",
    "GI50": "4.69 µM (inactive)"
  },
  {
    "compound": "NCCOc1ccc(/C(=C(/Cl)c2ccccc2)c2ccccc2)cc1",
    "GI50": "16.9 µM (inactive)"
  },
  {
    "compound": "Cc1ccc(/N=N/C(=N\\c2ccc(F)cc2)c2ccc(N(CCC#N)CCC#N)cc2)cc1",
    "GI50": "> 100 µM (inactive)"
  }
]

Kindly review the next compound as well.
According to the records, this compound `Nc1nc(Cl)c(N)c(NCC2(CO)CC2)n1` displays GI50 of > 100 µM (inactive)
